# system-tested: Voltage-gated potassium channel subunit beta-2 (Rattus norvegicus)
# experiment-description: inhibitors of rat Kvbeta2 reductase activity – biochemical, NADPH fluorescence, primary screen (AID 622);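 also: slope of raw intensity against log time taken from 70 to 1610 s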
# condition-label: recombinant KvBeta, 4-cyanobenzaldehyde reduction, at 10 µM, hits give high values
Activity calls are given as the source filed them.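 The calls were made as follows: active = fluorescence slope higher than the sample average by over 3 SD (cut at about -0.22 in these data, passing the limit was not always enough); inactive = the rest.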
value-kind: fluorescence slope

INSERT INTO results (compound, value_kind, recorded_measurement) VALUES
  ('CCOC(=O)CN(C)Cc1c[nH]c2ccccc12', 'fluorescence slope', '-0.426 (inactive)'),
  ('COCCn1c(SCC(=O)Nc2nnc(C)s2)nnc1-c1c[nH]c2ccccc12', 'fluorescence slope', '-0.505 (inactive)'),
  ('Cc1onc(-c2ccccc2)c1C(=O)Nc1ccnn1C1CCCCC1', 'fluorescence slope', '-0.367 (inactive)'),
  ('Cc1ccc(NC(=O)CSc2nnc(CCCCCNC(=O)OC(C)(C)C)o2)c(C)c1', 'fluorescence slope', '-0.546 (inactive)'),
  ('Nc1nnc(Cc2ccc(Cl)cc2)s1', 'fluorescence slope', '-0.483 (inactive)'),
  ('CC1c2nc3ccccc3n2C(CC(=O)NCc2ccccn2)C(=O)N1Cc1ccccc1 (stereo unspecified)', 'fluorescence slope', '-0.505 (inactive)'),
  ('Cc1ccc(C)c(Cn2c(=O)n(CCC(=O)NCc3ccco3)c(=O)c3sccc32)c1', 'fluorescence slope', '-0.572 (inactive)'),
  ('CC(=O)Nc1ccc(NC(=O)c2ccccc2F)cc1', 'fluorescence slope', '-0.556 (inactive)'),
  ('CC1(C)CC(=O)c2cnc(NC(=O)CSc3nc4ccccc4o3)nc2C1', 'fluorescence slope', '-0.294 (inactive)'),
  ('Cc1cc(C)cc(N2CCCn3c2nc2c3c(=O)n(CCN3CCOCC3)c(=O)n2C)c1', 'fluorescence slope', '-0.388 (inactive)'),
  ('O=C(CNS(=O)(=O)c1ccc(Br)s1)N1CCCC1', 'fluorescence slope', '-0.636 (inactive)'),
  ('COc1ccc(NC(=O)Cn2nnc(-c3ccccc3N)n2)cc1OC', 'fluorescence slope', '-0.595 (inactive)'),
  ('CN(C(=O)c1ccncc1)C1CC(C)(C)N(O)C(C)(C)C1', 'fluorescence slope', '-0.592 (inactive)'),
  ('O=C(Oc1oc(-c2ccco2)nc1C=Nc1ccccc1)c1ccoc1', 'fluorescence slope', '-0.402 (inactive)'),
  ('CC(=O)OC(C(=O)NCc1ccco1)c1cccnc1 (stereo unspecified)', 'fluorescence slope', '-0.553 (inactive)'),
  ('CCNc1oc(COc2cccc(C)c2)nc1C#N', 'fluorescence slope', '-0.57 (inactive)'),
  ('CCCCC(=NCCO)C1=C(O)C(C(=O)OC)C(C)(C)CC1=O (stereo unspecified)', 'fluorescence slope', '-0.407 (inactive)'),
  ('CCOC(=O)C1=C(C)NC(C)=C(C(=O)OC)C1c1cccc([N+](=O)[O-])c1 (stereo unspecified)', 'fluorescence slope', '-0.475 (inactive)'),
  ('COc1cc(OC)cc(-c2nnc(Nc3nc4c(F)cccc4s3)o2)c1', 'fluorescence slope', '-0.336 (inactive)'),
  ('CCC(C)(C)n1nnnc1C(c1ccccc1OC)N1CCSCC1 (stereo unspecified)', 'fluorescence slope', '-0.555 (inactive)'),
  ('COc1cc2c(cc1OC)C(c1cc(OC)c(OC)c(OC)c1)NCC2 (stereo unspecified)', 'fluorescence slope', '-0.546 (inactive)'),
  ('COCCN1C(=O)C(=O)/C(=C(/O)c2cccc(OC)c2)C1c1ccncc1 (stereo unspecified)', 'fluorescence slope', '-0.578 (inactive)'),
  ('COc1cccc(CC(NC(C)=O)C(=O)NC2CCN(c3c4c(nc5ncnn35)CCC4)CC2)c1 (stereo unspecified)', 'fluorescence slope', '-0.464 (inactive)'),
  ('CCN1CCN(C(=O)N[C@@H](C(=O)N[C@@H]2C(=O)N3[C@@H]2SC(C)(C)[C@@H]3C(=O)O)c2ccccc2)C(=O)C1=O', 'fluorescence slope', '-0.465 (inactive)'),
  ('Cc1ccc(-c2ccc(/C=N/n3cnnc3)o2)cc1Cl', 'fluorescence slope', '-0.555 (inactive)'),
  ('CC(C)(C)n1nc2c(c1NC(=O)COc1ccc(Cl)cc1)CSC2', 'fluorescence slope', '-0.467 (inactive)'),
  ('COc1cc(NC(=O)Cc2cccs2)ccc1-n1cnnn1', 'fluorescence slope', '-0.543 (inactive)'),
  ('CC(C)c1ccc(-c2nc(N3CCCCC3)[nH]c(=O)c2C#N)cc1', 'fluorescence slope', '-0.478 (inactive)'),
  ('CCN(CC)S(=O)(=O)c1ccc(C(=O)Oc2ccc3c(c2)OCO3)cc1', 'fluorescence slope', '-0.477 (inactive)'),
  ('COc1ccc(Cl)cc1NC(=O)c1oc(C)nc1C', 'fluorescence slope', '-0.35 (inactive)'),
  ('CC(=O)c1cc(-c2ccccc2)n(CC(=O)N2CCN(C3CCCC3)CC2)c1C', 'fluorescence slope', '-0.571 (inactive)'),
  ('CN1CC(=O)Nc2ccc(F)cc2C1=O', 'fluorescence slope', '-0.414 (inactive)'),
  ('CCOC(=O)CNC(=O)Cn1cnc2c(nnn2-c2cccc(Cl)c2)c1=O', 'fluorescence slope', '-0.477 (inactive)'),
  ('COc1ccc(-n2cc(-c3ccccc3)c3c(N4CCN(CCO)CC4)ncnc32)cc1', 'fluorescence slope', '-0.519 (inactive)'),
  ('Brc1ccc2[nH]ncc2c1', 'fluorescence slope', '-0.477 (inactive)'),
  ('O=C1CC(C(=O)Nc2ccccc2)C2(CCCC2)O1 (stereo unspecified)', 'fluorescence slope', '-0.569 (inactive)'),
  ('COc1ccccc1CNC(=O)CCn1c(=O)[nH]c2ccsc2c1=O', 'fluorescence slope', '-0.266 (inactive)'),
  ('CC(C)(C)N=C1NC(=NC(C)(C)C)c2ccccc21', 'fluorescence slope', '-0.525 (inactive)'),
  ('COc1cc(-c2nc(-c3cccc(C(F)(F)F)c3)no2)cc(OC)c1OC', 'fluorescence slope', '-0.554 (inactive)'),
  ('Cc1ccc(-c2nn3c(=O)c(C)nnc3s2)cc1', 'fluorescence slope', '-0.309 (inactive)'),
  ('O=C1CNCc2[nH]c3ccccc3c2N1c1ccccc1', 'fluorescence slope', '-0.509 (inactive)'),
  ('COC(=O)c1onc(C(=O)c2ccccc2)c1C(=O)OC', 'fluorescence slope', '-0.568 (inactive)'),
  ('Cn1c(SC/C=C/c2ccccc2)nnc1-c1cnccn1', 'fluorescence slope', '-0.572 (inactive)'),
  ('COc1ccc(-c2noc(CN3CCC(Cc4ccccc4)CC3)n2)cc1', 'fluorescence slope', '-0.553 (inactive)'),
  ('Cn1c(=O)c2c(nc(N3CCCCC3)n2CCSc2nc3ccccc3o2)n(C)c1=O', 'fluorescence slope', '-0.451 (inactive)'),
  ('Nc1nc(C(=O)N2CCOCC2)nn1S(=O)(=O)c1ccc(Cl)cc1', 'fluorescence slope', '-0.59 (inactive)');

Value source: PubChem BioAssay
